Value source: patent US20230016424A1

experiment: Liver Microsome stability (In Vitro Metabolism); type: in vitro ADME; conditions: Human liver microsomes
value_kind: microsomal CLint at 1 µM

// query Query: microsomal CLint at 1 µM; subject: C[C@@H]1[C@H](O)[C@@H](C)/C=C/C=C/C=C/C=C/C=C/C=C/C=C/[C@H](OC2O[C@H](C)[C@@H](O)[C@H](N)[C@@H]2O)C[C@@H]2O[C@](O)(C[C@@H](O)C[C@@H](O)[C@H](O)CC[C@@H](O)C[C@@H](O)CC(=O)O[C@H]1C)C[C@H](O)[C@H]2C(=O)O (stereo partly shown)
// result < 9.6 µL/min/mg

---

system: C. krusei; test: MIC; format: cell-based
Lab note: compare MIC C. krusei with 0.5 µM, writing Yes if less and No if equal or more.

// query For CC1C=CC=CC=CC=CC=CC=CC=CC(OC2OC(C)C(O)C(N)C2O)CC2OC(O)(CC(O)CC(O)C(O)CCC(O)CC(O)CC(=O)OC(C)C(C)C1O)CC(O)C2C(=O)NC1CC1 (centres unmarked) [AR3] , is the recorded MIC C. krusei below the cut-off of 0.5 µM?
// result No

// query For CC1C=CC=CC=CC=CC=CC=CC=CC(OC2OC(C)C(O)C(N)C2O)CC2OC(O)(CC(O)CC(O)C(O)CCC(O)CC(O)CC(=O)OC(C)C(C)C1O)CC(O)C2C(=O)NCC(C)(C)O (centres unmarked) [AI] , is the recorded MIC C. krusei below the cut-off of 0.5 µM?
// result No

// query For CC(CO)NC(=O)C1C(O)CC2(O)CC(O)CC(O)C(O)CCC(O)CC(O)CC(=O)OC(C)C(C)C(O)C(C)C=CC=CC=CC=CC=CC=CC=CC(OC3OC(C)C(O)C(N)C3O)CC1O2 (centres unmarked) [AC] , is the recorded MIC C. krusei below the cut-off of 0.5 µM?
// result Yes

// query For CC1C=CC=CC=CC=CC=CC=CC=CC(OC2OC(C)C(O)C(N)C2O)CC2OC(O)(CC(O)CC(O)C(O)CCC(O)CC(O)CC(=O)OC(C)C(C)C1O)CC(O)C2C(=O)NCC(O)CO (centres unmarked) [AK] , is the recorded MIC C. krusei below the cut-off of 0.5 µM?
// result Yes

Next compound, please.
// query For CC1C=CC=CC=CC=CC=CC=CC=CC(OC2OC(C)C(O)C(N)C2O)CC2OC(O)(CC(O)CC(O)C(O)CCC(O)CC(O)CC(=O)OC(C)C(C)C1O)CC(O)C2C(=O)NCC(O)CO (mixture of isomers) [AJ] , is the recorded MIC C. krusei below the cut-off of 0.5 µM?
// result Yes

---

test system: C. glabrata; assay: MIC; assay type: cell-based
value_kind: MIC C. glabrata (µM)
// return numeric value only (unit: µM, not printed)

The following compounds have reported results that may help.
// query Reported MIC C. glabrata for C. glabrata, given CC1C=CC=CC=CC=CC=CC=CC=CC(OC2OC(C)C(O)C(N)C2O)CC2OC(O)(CC(O)CC(O)C(O)CCC(O)CC(O)CC(=O)OC(C)C(C)C1O)CC(O)C2C(=O)NC1CC1 (centres unmarked) ?
// result 0.5

// query Reported MIC C. glabrata for C. glabrata, given CC1C=CC=CC=CC=CC=CC=CC=CC(OC2OC(C)C(O)C(N)C2O)CC2OC(O)(CC(O)CC(O)C(O)CCC(O)CC(O)CC(=O)OC(C)C(C)C1O)CC(O)C2C(=O)NC1CCCCCCCCC1 (centres unmarked) ?
// result 2000

// query Reported MIC C. glabrata for C. glabrata, given CC(O)CNC(=O)C1C(O)CC2(O)CC(O)CC(O)C(O)CCC(O)CC(O)CC(=O)OC(C)C(C)C(O)C(C)C=CC=CC=CC=CC=CC=CC=CC(OC3OC(C)C(O)C(N)C3O)CC1O2 (centres unmarked) ?
// result 0.2

Next:
// query Reported MIC C. glabrata for C. glabrata, given CCC(CO)NC(=O)C1C(O)CC2(O)CC(O)CC(O)C(O)CCC(O)CC(O)CC(=O)OC(C)C(C)C(O)C(C)C=CC=CC=CC=CC=CC=CC=CC(OC3OC(C)C(O)C(N)C3O)CC1O2 (centres unmarked) ?
// result 0.3

// query Reported MIC C. glabrata for C. glabrata, given COCCNC(=O)C1C(O)CC2(O)CC(O)CC(O)C(O)CCC(O)CC(O)CC(=O)OC(C)C(C)C(O)C(C)C=CC=CC=CC=CC=CC=CC=CC(OC3OC(C)C(O)C(N)C3O)CC1O2 (centres unmarked) ?
// result 0.3
